test system: H9c2 cardiomyocytes, 2-deoxyglucose stress, ATP luminescence, 2 h; test: H9c2 cell survival under 2-deoxyglucose stress – uHTS hits, dose response (AID 588780)
Activity calls are given as the source filed them.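 Rule for the calls: active = compounds whose fitted half-maximal concentration in the cell-protection dose series is at or below a set limit; inactive = the rest.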
Would you mind answering with one of these outcomes? True (active), False (inactive)

Check out these entries, answers already filled in.
COMPOUND	STUDY_SYSTEM	ASSIGNED_LABEL
CC1(C)Oc2ccc3ccc(=O)oc3c2/C(=C/Nc2ccccn2)C1=O	H9c2 cardiomyocytes, 2-deoxyglucose stress, ATP luminescence, 2 h	True
COC(=O)c1ccc(Cn2nnc3c(=O)[nH]c(C4CCCN(S(=O)(=O)c5ccccc5)C4)nc32)cc1 (stereo not given)	H9c2 cardiomyocytes, 2-deoxyglucose stress, ATP luminescence, 2 h	False
NC(=O)c1nsc(C(=O)N(c2ccccc2F)C(C(=O)NCc2ccc(F)cc2)c2ccc(O)cc2)c1N (stereo not given)	H9c2 cardiomyocytes, 2-deoxyglucose stress, ATP luminescence, 2 h	False
Oc1ccc2oc3c(c2c1C=NCc1ccncc1)CCCC3	H9c2 cardiomyocytes, 2-deoxyglucose stress, ATP luminescence, 2 h	False

Then there is this compound:
Inquiry: Kindly provide the recorded test outcome for the following compound: `COc1cc(-c2nnc(-c3cc(-c4ccccc4)nc4ccccc34)o2)cc(OC)c1OC`
Reply text: True

* * *

tested on: H9c2 cardiomyocytes, 2-deoxyglucose stress, ATP luminescence, 2 h; experiment: H9c2 cell survival under 2-deoxyglucose stress – uHTS hits, dose response (AID 588780)
Calls of active or inactive are those of the source.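 The calls were made as follows: active = compounds whose fitted half-maximal concentration in the cell-protection dose series is at or below a set limit; inactive = the rest.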
Would you mind answering with one of these outcomes? YES = active, NO = inactive

Inquiry: Kindly provide the recorded test outcome for the following compound: `COc1cc(/C=C/c2nc3ccccc3c(=O)n2-c2ccccc2O)ccc1O`
Reply text: YES

Inquiry: Also need `COc1ccc(-c2oc3c(OC)c(OC)c(OC)c(O)c3c(=O)c2OC)cc1OC` , thanks.
Reply text: NO

Inquiry: Also need `COc1ccccc1NC(=O)c1cc(-c2cc(OC)c(OC)c(OC)c2)nc2ccccc12` , thanks.
Reply text: NO

* * *

tested on: H9c2 cardiomyocytes, 2-deoxyglucose stress, ATP luminescence, 2 h; experiment: H9c2 cell survival under 2-deoxyglucose stress – uHTS hits, dose response (AID 588780)
Calls of active or inactive are those of the source.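 The calls were made as follows: active = compounds whose fitted half-maximal concentration in the cell-protection dose series is at or below a set limit; inactive = the rest.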
Would you mind answering with one of these outcomes? class 1 = active, class 0 = inactive

Inquiry: Kindly provide the recorded test outcome for the following compound: `Cc1nn(-c2ccccc2)c(C)c1/C=N/NC(=O)c1cc(C(C)(C)C)[nH]n1`
Reply text: class 0

* * *

test system: H9c2 cardiomyocytes, 2-deoxyglucose stress, ATP luminescence, 2 h; test: H9c2 cell survival under 2-deoxyglucose stress – uHTS hits, dose response (AID 588780)
Active and inactive are the calls of the source.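 Rule for the calls: active = compounds whose fitted half-maximal concentration in the cell-protection dose series is at or below a set limit; inactive = the rest.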
MEASURE_NAME: IC50

Solved cases (5 shown):
MOLECULE	IC50
CCn1ncc2c1C(=O)NC1c3ccccc3C(=O)N21 (stereo not given)	> 79 µM (inactive)
Cc1ccc(-n2cc(-c3ccccc3)c3c(N4CCOCC4)ncnc32)cc1	> 79 µM (inactive)
CCOC(=O)C1=C(COC(=O)c2cc(OC)c(OC)c(OC)c2)NC(=O)NC1C (stereo not given)	50 µM (inactive)
CC(=NO)C1CCC2C3CCC4CC(=NO)CCC4(C)C3C(C)(O)CC12C (stereo not given)	14.9 µM
CCCN(CCC)S(=O)(=O)c1ccc(C(=O)Nc2nnc(-c3cc(OC)cc(OC)c3)o2)cc1	9.06 µM

Inquiry: Provide the documented IC50 with H9c2 cardiomyocytes, 2-deoxyglucose stress, ATP luminescence, 2 h as the system for `CC(=O)c1ccc(-c2cnc3c(NC=O)cc(-c4cccc(C(=O)N(C)C)c4)cn23)cc1`
Reply text: 14 µM

Inquiry: Also need `Cc1c(C(=O)Nc2ccc3nc(N4CCOCC4)sc3c2)oc2ccccc12` , thanks.
Reply text: > 79 µM (inactive)

Inquiry: Also need `CN(CC(=O)Nc1cccc(F)c1)C(=O)Cc1n[nH]c(=O)c2ccccc12` , thanks.
Reply text: > 79 µM (inactive)

Inquiry: Also need `O=C(Nc1nnc(-c2ccco2)o1)c1ccc2ccccc2c1` , thanks.
Reply text: > 79 µM (inactive)

Inquiry: Also need `CC(=O)Nc1cccc(-c2cc(NC(C)=O)c3ncc(-c4ccccc4)n3c2)c1` , thanks.
Reply text: 12.8 µM
